Molecular target: T1, citrullinated histone 4-derived peptide (SEQ ID NO: 20), C-terminal biotin (human, citrulline at position 3; biotin at the C-terminus)
T1 construct: Immobilized on streptavidin biosensors (Octet RED96); also called H4-derived peptide; N-terminal histone 4 peptide
T1 peptide: SGXGKGGKGLGK
Test: Octet RED96 off-rate screen, biotinylated peptide on streptavidin biosensors, antibody 72 nM, 30 C
reportedEndpoint: binding result

- binder: "hMQ22.101HC9/LC42 (antibody, V domains shown, also called isomerization mutant; heavy chain hVH22.101HC9 with light chain hVL22.101LC42) VH: RIQLVQSGAEVKKPGASVKVSCKASGYTFTNYGMHWVRQAPGQGLEWMGWINTYSGEATYVDDFQGRVTMTRDTSISTAYMELSRLRSDDTAVYYCLRGYTYQSFDEGGDYWGQGTLVTVSS VL: DVVMTQSPLSLPVTLGQPASISCRSSQSLLDNDGKTYLNWFQQRPGQSPRRLIYLVSKLDSGVPDRFSGSGSGTDFTLKISRVEAEDVGVYYCWQGTHFPYTFGQGTKLEIK"
  reportedResult: "binds"
- binder: "hMQ22.101HC9/LC21 (antibody, V domains shown, also called isomerization mutant; heavy chain hVH22.101HC9 with light chain hVL22.101LC21) VH: RIQLVQSGAEVKKPGASVKVSCKASGYTFTNYGMHWVRQAPGQGLEWMGWINTYSGEATYVDDFQGRVTMTRDTSISTAYMELSRLRSDDTAVYYCLRGYTYQSFDEGGDYWGQGTLVTVSS VL: DVVMTQSPLSLPVTLGQPASISCRSSQSLLDSDAKTYLNWFQQRPGQSPRRLIYLVSKLDSGVPDRFSGSGSGTDFTLKISRVEAEDVGVYYCWQGTHFPYTFGQGTKLEIK"
  reportedResult: "binds"
- binder: "hMQ22.101j/LC27 (antibody, V domains shown, also called isomerization mutant; heavy chain hVH22.101j with light chain hVL22.101LC27) VH: QVQLVQSGAEVKKPGASVKVSCKASGYTFTNYGMHWVRQAPGQGLEWMGWINTYSGEATYAQKFQGRVTMTRDTSISTAYMELSRLRSDDTAVYYCLRGYTYQSFDEGGDYWGQGTLVTVSS VL: DVVMTQSPLSLPVTLGQPASISCRSSQSLLDTDAKTYLNWFQQRPGQSPRRLIYLVSKLDSGVPDRFSGSGSGTDFTLKISRVEAEDVGVYYCWQGTHFPYTFGQGTKLEIK"
  reportedResult: "binds"
